test: The drug is tested on Bacteroides coprophilus strain: DSM18228 for biotransformation. The drug concentrations were measured before and after a 12-h incubation by liquid-chromatography-coupled mass spectrometry (LC–MS)
conditions: 2 µM
metric: Bacterial Biotransformation

* CN(C)CCC=C1c2ccccc2COc2ccccc21 [DOXEPIN] | Compound NOT metabolized
* CC(C)(Oc1ccc(CCNC(=O)c2ccc(Cl)cc2)cc1)C(=O)O [BEZAFIBRATE] | Compound metabolized
* COc1ccc(CN2CCNCC2)c(OC)c1OC.Cl.Cl [TRIMETAZIDINE DIHYDROCHLORIDE] | Compound metabolized
* O=C1CN2Cc3c(ccc(Cl)c3Cl)N=C2N1 [ANAGRELIDE] | Compound NOT metabolized

Field Bacterial Biotransformation (entry CN1CCC(=C2c3ccccc3CC(=O)c3sccc32)CC1.O=C(O)/C=C/C(=O)O [KETOTIFEN FUMARATE] ) reads Compound NOT metabolized

====

test: The drug is tested on Eubacterium hallii strain: DSM3353 for biotransformation. The drug concentrations were measured before and after a 12-h incubation by liquid-chromatography-coupled mass spectrometry (LC–MS)
conditions: anaerobutyricum hallii, 2 µM
metric: Bacterial Biotransformation

Some molecules with known Bacterial Biotransformation results, for comparison:
- c1ccc2[nH]c(-c3cscn3)nc2c1: Compound NOT metabolized
- Nc1nnc(-c2cccc(Cl)c2Cl)c(N)n1: Compound NOT metabolized
- CCN(CC)CCNC(=O)c1cc(Cl)c(N)cc1OC [METOCLOPRAMIDE]: Compound NOT metabolized
- CCCCC(=O)N(Cc1ccc(-c2ccccc2-c2nnn[nH]2)cc1)[C@H](C(=O)O)C(C)C: Compound NOT metabolized
- CC(C)(C)NC[C@H](O)COc1ccccc1C1CCCC1.CC(C)(C)NC[C@H](O)COc1ccccc1C1CCCC1.O=S(=O)(O)O [PENBUTOLOL SULFATE]: Compound NOT metabolized
- CNS(=O)(=O)Cc1ccc2[nH]cc(CCN(C)C)c2c1.O=C(O)CCC(=O)O [SUMATRIPTAN SUCCINATE]: Compound NOT metabolized
- CCOC(=O)[C@H](CCc1ccccc1)N[C@@H](C)C(=O)N1[C@H](C(=O)O)C[C@@H]2CCC[C@@H]21: Compound NOT metabolized
- CCOc1cc(CC(=O)N[C@@H](CC(C)C)c2ccccc2N2CCCCC2)ccc1C(=O)O [REPAGLINIDE]: Compound metabolized

The reported value for O=C(NC(Cc1cc(=O)[nH]c2ccccc12)C(=O)O)c1ccc(Cl)cc1 (stereo unspecified) [REBAMIPIDE] in terms of Bacterial Biotransformation is Compound NOT metabolized

Given item CC(Oc1c(Cl)cccc1Cl)C1=NCCN1 (stereo unspecified) , the value recorded as its Bacterial Biotransformation is Compound metabolized

// recorded Bacterial Biotransformation for CSc1ccc2c(c1)C(N1CCN(C)CC1)Cc1ccccc1S2.O=C(O)/C=C\C(=O)O (stereo unspecified) : Compound NOT metabolized

====

test: The drug is tested on Providencia stuartii strain: ATCC25827 for biotransformation. The drug concentrations were measured before and after a 12-h incubation by liquid-chromatography-coupled mass spectrometry (LC–MS)
conditions: 2 µM
Non-standard residues stand in square brackets, D forms with d. Residues, ends and D or L forms follow the SMILES beside them. pGlu = O=C1CC[C@@H](C(=O)O)N1; Thz = O=C(O)[C@@H]1CSCN1
metric: Bacterial Biotransformation

Some molecules with known Bacterial Biotransformation results, for comparison:
* Nc1nc(NC2CC2)c2ncn([C@H]3C=C[C@@H](CO)C3)c2n1.Nc1nc(NC2CC2)c2ncn([C@H]3C=C[C@@H](CO)C3)c2n1.O=S(=O)(O)O [ABACAVIR SULFATE] | Compound NOT metabolized
* CN(C(=O)CN(CCO)CC(=O)N(C)C(C)(C)Cc1ccccc1)C(C)(C)Cc1ccccc1 | Compound NOT metabolized
* Cc1cc2c(cc1S(N)(=O)=O)S(=O)(=O)CCC2 | Compound NOT metabolized
* O=C1CC[C@@H](C(=O)N2CSC[C@H]2C(=O)O)N1 [PIDOTIMOD] ([pGlu]-[Thz]-OH) | Compound NOT metabolized

Query COc1c(C)c2c(c(O)c1C/C=C(\C)CCC(=O)OCCN1CCOCC1)C(=O)OC2 [MYCOPHENOLATE MOFETIL] yields Bacterial Biotransformation of Compound metabolized

The molecule listed as CC(=O)CC(c1ccccc1)c1c(O)c2ccccc2oc1=O (stereo not drawn) has a reported Bacterial Biotransformation of Compound NOT metabolized

// CN(C)C(=O)C(CCN1CCC(O)(c2ccc(Cl)cc2)CC1)(c1ccccc1)c1ccccc1 [LOPERAMIDE] : Bacterial Biotransformation value = Compound NOT metabolized

Briefly, Bacterial Biotransformation measured for CCN(CC)CC#CCOC(=O)C(O)(c1ccccc1)C1CCCCC1.Cl (stereo not drawn) [OXYBUTYNIN CHLORIDE] : Compound NOT metabolized

CC(C)(C)NCC(O)c1cc(Cl)c(N)c(Cl)c1 (stereo not drawn) yielded Bacterial Biotransformation of Compound NOT metabolized

Recorded result, CCN(CC)C(=O)C1(c2ccccc2)CC1CN (stereo not drawn) , Bacterial Biotransformation: Compound NOT metabolized

For `Cc1nc(-c2ccc(OCC(C)C)c(C#N)c2)sc1C(=O)O` the molecule record lists Bacterial Biotransformation as Compound NOT metabolized

Value of measured Bacterial Biotransformation for the entry CCN(CC)CCCC(C)Nc1c2ccc(Cl)cc2nc2ccc(OC)cc12 (stereo not drawn) : Compound NOT metabolized
